B1: TPR t1 (parent)
chain: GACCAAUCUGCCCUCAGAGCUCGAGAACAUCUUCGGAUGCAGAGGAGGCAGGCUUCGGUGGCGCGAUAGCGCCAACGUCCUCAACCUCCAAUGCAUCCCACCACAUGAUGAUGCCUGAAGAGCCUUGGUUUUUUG

# Variants of: B1
# protocol: polymerase ribozyme fitness, log enrichment relative to wild type (log ratio); higher = more active; in vitro selection for triplet polymerase activity
Label yes (1) when polymerase ribozyme fitness (log ratio) is at or above -4; otherwise label no (0).

> print(dat)
                     mutation.annotation    label
 1                              A6G C34A  yes (1)
 2                      A90U G113A G128A  yes (1)
 3            C40G G58C G60U C101U U126C  yes (1)
 4       G19U C53G U54A G61A C124A G128A  yes (1)
 5                        C8G C73G G128A  yes (1)
 6                        G69U U87A C97A  yes (1)
 7                A27U C104U A111C G120C   no (0)
 8                            C72U A108G  yes (1)
 9                  U7C A41U C123G U131A  yes (1)
10                   C28U C40G G48U C85A  yes (1)
11                             C31U C70U   no (0)
12                  G45C C49U C56G A121C  yes (1)
13                   C53G A66C A83G A84U  yes (1)
14            G45U C72U U78G C101A G122A  yes (1)
15                  A29U G52C C73G U129A   no (0)
16                         U7C C11U G69C  yes (1)
17                       A37G C73G U109A   no (0)
18                C73G C101U U112C G117C  yes (1)
19                            C70U C104G   no (0)
20                       A90C C97U G113A  yes (1)
21                             G45A C53U  yes (1)
22                       A66G C79G G120A  yes (1)
23                        C53A C72G U92G  yes (1)
24                         C4A G42U G69U  yes (1)
25                       G36U G60U A111U  yes (1)
26             C12U C15G C79A C85G G120A  yes (1)
27                  G44A C49A C76A U106A  yes (1)
28                              C4A G61U  yes (1)
29                            G60C C102U  yes (1)
30               C8A C11G C13U C20A C49G  yes (1)
31                        G35A A37U U87G   no (0)
32                  A37G G69U C99A C114A  yes (1)
33                             U54C C76U  yes (1)
34                 C72A C82G C115A C123A  yes (1)
35                            C79G A121U  yes (1)
36                 G48C G63A G113U C123A   no (0)
37       U9G G65A C72G G122A C123G U129G   no (0)
38         U9A C12U C15A C53G U54C U106G  yes (1)
39        A2U C11G G48U G93U G120C G122U  yes (1)
40                             C72G A90U  yes (1)
41        C20U G45U G52A C73G C94U C104U   no (0)
42                             C34U G63U   no (0)
43                   G48A C85G C89A U96C  yes (1)
44                 C40A C89G U106G C123U   no (0)
45                   G71C C73U C79G A90U   no (0)
46                             C70G C94A  yes (1)
47                             C3A C124A  yes (1)
48                       U21C A27G C123G  yes (1)
49  A37U C40U A50C G51C A74U U109A U131G   no (0)
50                 C40A C89U G117A A121G  yes (1)
51                 C56U U59A C101U G122A  yes (1)
52                  A18G G19A U96C C115A   no (0)
53                             G36A C98U  yes (1)
54                       C13G C82U U131A  yes (1)
55                             G51A G93A  yes (1)
56                             U21C C70U  yes (1)
57      G25C C34G C70A C104G G110U U116G   no (0)
58                        A29C G36U G45U   no (0)
59  G51A A68C C79G C80G A84C C124G G128C   no (0)
60                    U9A U21G A41U G45A   no (0)
61                        G17U G52C C72U  yes (1)
62          U7G C12U G36A C40A G45A G71U  yes (1)
63                             A46C C76A  yes (1)
64      C13U A29C G52U C104U G120A U131A  yes (1)
65                         A6G G47U G71A  yes (1)
66              A5C G47U G48C G71A C102A   no (0)
67                            G60A U133A  yes (1)
68                       G42A G69C C124U  yes (1)
69               U9A U30C G44A G57U G60A   no (0)
70                        U59C C64U U81A  yes (1)
71                        C12U C49A U96C  yes (1)
72                   A27G C40U C49G C73U  yes (1)
73                            G69U G107A  yes (1)
74                            C89G U125A  yes (1)
75                             A18C G58C  yes (1)
76                      U59C C114A U130A  yes (1)
77        U21C A41G G44A C56U C98U U112A  yes (1)
78      G58A G61A G93A G113C U125C G135A  yes (1)
79                  A84U C88U G93A G128A  yes (1)
80                             C64U U78G  yes (1)
81                      U59A C101U C124A  yes (1)
